assay: AUC (0 to infinity) in Sprague-Dawley rat at 5 mg/kg, iv; format: ADME, organism-based; design: dose 5 mg/kg, route intravenous, time infinity; conditions: plasma
VALUE_TYPE: AUC(0-inf) (ng·h/mL)
Respond with the bare value in ng·h/mL.

Task item: Provide one value: measured AUC(0-inf) of C[C@@H](N1CCc2nc(-c3cncnc3)sc2C1)[C@](O)(Cn1cncn1)c1ccc(F)cc1F.O.O=S(=O)(O)O
Reply: 1190

====

Recorded measurements of MIC, one per entry
test system: Candida albicans; experiment: Antimicrobial activity against fluconazole-resistant Candida albicans 103 after 24 hrs by serial dilution method; assay type: functional; settings: Candida albicans, 103, 24 h

| SMILES_RECORD | ASSAYED_TARGET | MIC |
| --- | --- | --- |
| OC(Cn1cncn1)(Cn1cncn1)c1ccc(F)cc1F | Candida albicans | > 1020 µg/mL |

Task item: Please give measured MIC of the following entry: C[C@@H](N1CCc2nc(-c3cncnc3)sc2C1)[C@](O)(Cn1cncn1)c1ccc(F)cc1F
Reply: 8 µg/mL

Task item: Dear colleague, please send me the reported MIC for C[C@@H](N1CCn2nnc(Br)c2C1)[C@](O)(Cn1cncn1)c1ccc(F)cc1F when you can.
Reply: > 32 µg/mL

Task item: Query MIC for C[C@@H](N1CCn2nc(-c3ccc(C#N)nc3)nc2C1)[C@](O)(Cn1cncn1)c1ccc(F)cc1F
Reply: > 16 µg/mL

Task item: Identify measured MIC associated with C[C@@H](N1CCn2cc(-c3ccccc3)nc2C1)[C@](O)(Cn1cncn1)c1ccc(F)cc1F
Reply: > 32 µg/mL

Task item: Answer with reported MIC of C[C@@H](c1ncncc1F)[C@](O)(Cn1cncn1)c1ccc(F)cc1F
Reply: > 16 µg/mL

Task item: Report measured MIC; entry is C[C@@H](n1cnc2cc(Cl)ccc2c1=O)[C@](O)(Cn1cncn1)c1ccc(F)cc1F
Reply: 4 µg/mL

Task item: // Input: C[C@@H](N1CCn2nc(-c3ccccc3)nc2C1)[C@](O)(Cn1cncn1)c1ccc(F)cc1F . Output its MIC only.
Reply: > 32 µg/mL

====

assay: Oral bioavailability in Sprague-Dawley rat at 10 mg/kg; format: ADME, organism-based; conditions: in vivo
Reported bioavailability values for the following compounds.

Task item: Provide bioavailability value for the following compound: C[C@@H](N1CCc2nc(-c3cncnc3)sc2C1)[C@](O)(Cn1cncn1)c1ccc(F)cc1F.O.O=S(=O)(O)O
Reply: 5.8%

Task item: Give the value of bioavailability reported for the following: C[C@@H](N1CCn2nc(-c3ccc(C#N)nc3)nc2C1)[C@](O)(Cn1cncn1)c1ccc(F)cc1F
Reply: 105%

====

assay: Aqueous solubility of the compound in phosphate buffer at pH 7.4; assay type: physicochemical
VALUE_TYPE: solubility
The answer should read as a number with its unit following.

Task item: Provide solubility value for the following compound: C[C@@H](N1CCc2nc(-c3cncnc3)sc2C1)[C@](O)(Cn1cncn1)c1ccc(F)cc1F.O=S(=O)(O)O
Reply: 108000 µg/mL

Task item: Given C[C@@H](N1CCc2nc(-c3cncnc3)sc2C1)[C@](O)(Cn1cncn1)c1ccc(F)cc1F.Cc1ccc(S(=O)(=O)O)cc1 , respond with its solubility.
Reply: 5800 µg/mL

Task item: Using the record for C[C@@H](N1CCc2nc(-c3cncnc3)sc2C1)[C@](O)(Cn1cncn1)c1ccc(F)cc1F.O=P(O)(O)O , state its measured solubility.
Reply: 8330 µg/mL
